- Test system: Human liver cancer cell line HepG2
- TEST: MTT cell viability assay, HepG2
- Assay type: cell-based
- EXPERIMENTAL PARAMETERS: HepG2, MTT, 72 h, read-out: IC50 antiproliferative activity HepG2
ENDPOINT NAME: pIC50
# pIC50 is unitless: minus log10 of the molar concentration; print number only

Input line: State pIC50 on Human liver cancer cell line HepG2. Entry: COc1cc(/C=C/C(=O)CC(=O)/C=C/c2ccc(/C=C/C(=O)NO)cc2)ccc1O
Output line: 5.37

* * *

- Tested on: Human leukemia cell line K562
- TEST: MTT cell viability assay, K562
- Type: cell-based
- EXPERIMENTAL PARAMETERS: K562, 72 h, read-out: IC50 antiproliferative activity K562
ENDPOINT NAME: pIC50
# pIC50 is unitless: minus log10 of the molar concentration; print number only

Input line: Provide one value: measured pIC50 of COc1cc(/C=C/C(=O)CC(=O)/C=C/c2ccc(O)c(OC)c2)ccc1O [Curcumin, reference compound]
Output line: 4.79

* * *

- TEST: Hepatic microsome stability assay, rat
- Assay type: in vitro ADME
- EXPERIMENTAL PARAMETERS: rat liver microsomes, NADPH, 37°C, pH 7.4; read-out: Rat Liver Microsomal Stability T1/2
ENDPOINT NAME: half-life (min)
Response body: numeric value in min, unit text excluded.

Input line: Provide one value: measured half-life of COc1cc(/C=C/C(=O)CC(=O)/C=C/c2ccc(O)c(OC)c2)ccc1O [Curcumin, reference compound]
Output line: 10.4

* * *

- TEST: Pharmacokinetic study in mice
- Type: in vivo, SD mice
- EXPERIMENTAL PARAMETERS: female, SD, mouse, iv, i.v. 1 mg/kg, plasma
ENDPOINT NAME: clearance (mL/min/kg)
Response body: numeric value in mL/min/kg, unit text excluded.

Input line: Provide one value: measured clearance of COc1cc(/C=C/C(=O)CC(=O)/C=C/c2ccc(/C=C/C(=O)NO)cc2)ccc1O
Output line: 30

* * *

- TEST: Pharmacokinetic study in mice
- Assay type: in vivo, SD mice
- EXPERIMENTAL PARAMETERS: female, SD, mouse, po, p.o. 10 mg/kg, plasma
ENDPOINT NAME: AUC(0-inf) (ng·h/mL)
Response body: numeric value in ng·h/mL, unit text excluded.

Input line: Provide one value: measured AUC(0-inf) of COc1cc(/C=C/C(=O)CC(=O)/C=C/c2ccc(/C=C/C(=O)NO)cc2)ccc1O [DMC-HA]
Output line: 2010
